Attribution: patent US20170050957A1

Test system: Key Grass and Sedge Weeds as well as Grass Crops
Experiment: Post-emergent Test II herbicidal activity (Table 16)
Assay type: in vivo
Conditions: Cyperus esculentus, post-emergence, 336 h, yellow nutsedge (Cyperus esculentus), 140 g ai/ha, 14 d, read-out: Visual Growth Reduction (%) 14 Days After Application, CYPES
From the text: Post-emergent Test II: Seeds or nutlets of the desired test plant species were planted in Sun Gro Metro-Mix® 360 planting mixture, which typically has a pH of 6.0 to 6.8 and an organic matter content of about 30 percent, in plastic pots with a surface area of 64 square centimeters. When required to ensure good germination and healthy plants, a fungicide treatment and/or other chemical or physical treatment was applied. […]
Entries annotated with measured pest or weed control at 140 g/ha

Use the examples below as a reference point.
- COC(=O)c1nc(-c2ccc3cc[nH]c3c2)nc(N)c1Cl [Compound 1.30]: 0 to 29%
- COC(=O)c1nc(-c2cc3occc3cc2F)nc(N)c1OC [Compound 2.14]: 0 to 29%
- COc1c(N)nc(-c2cc3[nH]ccc3cc2F)nc1C(=O)O [Compound 1.37]: 0 to 29%
- COc1c(N)nc(-c2ccc3cc[nH]c3c2)nc1C(=O)O [Compound 1.33]: 0 to 29%

Next compound, pest or weed control at 140 g/ha to be filled in.
Q: Tell us which pest or weed control at 140 g/ha value is on record for COC(=O)c1nc(-c2ccc3ccoc3c2F)c(F)c(N)c1Cl [Compound 2.09]
A: 0 to 29%

---

Each entry below carries its recorded pest or weed control at 35 g/ha.
Tested on: Key Broadleaf Weed and Crop Species
Test: Post-emergent Test II herbicidal activity (Table 15)
Type: in vivo
Conditions: Helianthus annuus, post-emergence, 336 h, sunflower (Helianthus annuus), 35 g ai/ha, 14 d, read-out: Visual Growth Reduction (%) 14 Days After Application, HELAN

Known results for compounds:
• Nc1c(F)c(-c2ccc3cc[nH]c3c2F)nc(C(=O)O)c1Cl = 95 to 100%
• Cc1c(-c2ccc3ccsc3c2)nc(C(=O)O)c(Cl)c1N = 85 to 94%
• COC(=O)c1nc(-c2ccc3ncn(C)c3c2)c(F)c(N)c1Cl = 0 to 29%

Q: State, in one line, measured pest or weed control at 35 g/ha of COC(=O)c1nc(-c2ccc3sccc3c2)c(F)c(N)c1Cl
A: 95 to 100%

Q: Name the recorded pest or weed control at 35 g/ha of the item Nc1c(F)c(-c2ccc3occc3c2)nc(C(=O)O)c1Cl in your answer.
A: 75 to 84%

---

Test system: Key Grass and Sedge Weeds as well as Grass Crops
Assay: Post-emergent Test II herbicidal activity (Table 16)
Format: in vivo
Details: Echinochloa crus-galli, post-emergence, 336 h, barnyardgrass (Echinochloa crus-galli), 140 g ai/ha, 14 d, read-out: Visual Growth Reduction (%) 14 Days After Application, ECHCG
reported metric: pest or weed control at 140 g/ha

* COC(=O)c1nc(-c2ccc3cc[nH]c3c2)nc(N)c1Cl [Compound 1.30] | 0 to 29%
* Nc1c(F)c(-c2ccc3cc[nH]c3c2)nc(C(=O)O)c1Cl [Compound 1.09] | 95 to 100%
* COC(=O)c1nc(-c2ccc3ccn(C)c3c2)c(F)c(N)c1Cl [Compound 1.10] | 0 to 29%
* COC(=O)c1nc(-c2ccc3ccn([Si](C(C)C)(C(C)C)C(C)C)c3c2F)c(F)c(N)c1Cl [Compound 1.12] | 85 to 94%
* COC(=O)c1nc(-c2ccc3cc[nH]c3c2)c(F)c(N)c1Cl [Compound 1.08] | 95 to 100%
* COC(=O)c1nc(-c2ccc3ccoc3c2F)cc(N)c1Cl [Compound 2.11] | 95 to 100%

Q: Please indicate pest or weed control at 140 g/ha recorded for COC(=O)c1nc(-c2ccc3cc[nH]c3c2F)c(F)c(N)c1Cl [Compound 1.15]
A: 95 to 100%

Q: Look up and report measured pest or weed control at 140 g/ha for this entry: COC(=O)c1nc(-c2ccc3sccc3c2)c(F)c(N)c1Cl [Compound 3.03]
A: 95 to 100%

Q: Could you please provide reported pest or weed control at 140 g/ha for COC(=O)c1nc(-c2ccc(Cl)c3[nH]ccc23)c(F)c(N)c1Cl [Compound 1.43] ? Thanks!
A: 0 to 29%

Q: Supply pest or weed control at 140 g/ha value. Item: COC(=O)c1nc(-c2cc3occc3cc2F)c(F)c(N)c1Cl [Compound 2.10]
A: 85 to 94%

Q: Provide only the value of recorded pest or weed control at 140 g/ha for Nc1c(F)c(-c2ccc3[nH]ccc3c2)nc(C(=O)O)c1Cl [Compound 1.04]
A: 85 to 94%

Q: Give pest or weed control at 140 g/ha for the following compound: COC(=O)c1nc(-c2ccc3sccc3c2)c(Cl)c(N)c1Cl [Compound 3.01]
A: 0 to 29%

Q: Report pest or weed control at 140 g/ha for COc1c(N)nc(-c2cc3[nH]ccc3cc2F)nc1C(=O)O [Compound 1.37]
A: 0 to 29%

Q: Quickly give me recorded pest or weed control at 140 g/ha for COC(=O)c1nc(-c2ccc(Cl)c3ccoc23)c(F)c(N)c1Cl [Compound 2.24]
A: 0 to 29%
